Source listed as patent US6599932B1.

# Test system: breast tumor cell line BT-20
# Assay name: Viability assay, Trypan blue exclusion, breast tumor cell line BT-20
# Format: cell-based
# Design: dose or concentration left out as unconfirmed
# Experimental setup: Homo sapiens, BT-20, 96 hours, read-out: percent cell death (% Death), BT20
Measured quantity: cytotoxicity

// solved cases for cytotoxicity follow
{"Smiles code": "O=S(=O)(/C=C/c1ccc(Br)s1)Cc1ccc(Cl)cc1", "cytotoxicity": "5 to 10%"}
{"Smiles code": "COc1ccc(CS(=O)(=O)/C=C/c2ccsc2)cc1", "cytotoxicity": "50 to 60%"}
{"Smiles code": "O=S(=O)(/C=C/c1cc(Br)cs1)Cc1ccc(Br)cc1", "cytotoxicity": "5 to 10%"}
{"Smiles code": "COc1ccc(CS(=O)(=O)/C=C/c2csc([N+](=O)[O-])c2)cc1", "cytotoxicity": "40 to 50%"}
{"Smiles code": "O=S(=O)(/C=C/c1cccnc1)Cc1ccc(Br)cc1", "cytotoxicity": "10 to 15%"}

Now for the molecule whose cytotoxicity we want.
# lookup: cytotoxicity of O=S(=O)(/C=C/c1cccc2ccccc12)Cc1ccc(Br)cc1
10 to 15%

----------
# Test system: breast tumor cell line BT-20
# Assay name: Viability assay, Trypan blue exclusion, breast tumor cell line BT-20
# Assay type: cell-based
# Set-up: dose or concentration left out as unconfirmed
# Experimental setup: Homo sapiens, BT-20, 96 hours, read-out: percent cell death (% Death), BT20
Measured quantity: cytotoxicity

{"Smiles code": "O=S(=O)(/C=C/c1ccc(Br)s1)Cc1ccc(Br)cc1", "System tested": "breast tumor cell line BT-20", "cytotoxicity": "5 to 10%"}
{"Smiles code": "O=S(=O)(/C=C/c1ccc(F)cc1)Cc1cccc2ccccc12", "System tested": "breast tumor cell line BT-20", "cytotoxicity": "5 to 10%"}
{"Smiles code": "O=S(=O)(/C=C/c1ccc(Br)cc1)Cc1cccc2ccccc12", "System tested": "breast tumor cell line BT-20", "cytotoxicity": "5 to 10%"}
{"Smiles code": "O=S(=O)(/C=C/c1cc(Br)cs1)Cc1ccc(Cl)cc1", "System tested": "breast tumor cell line BT-20", "cytotoxicity": "5 to 10%"}
{"Smiles code": "O=[N+]([O-])c1cc(/C=C/S(=O)(=O)Cc2ccc(Cl)cc2Cl)cs1", "System tested": "breast tumor cell line BT-20", "cytotoxicity": "5 to 10%"}

Requested read-out cytotoxicity, target or system breast tumor cell line BT-20, entry O=S(=O)(/C=C/c1c2ccccc2cc2ccccc12)Cc1ccc(F)cc1
50 to 60%

Again, but for O=S(=O)(/C=C/c1ccccn1)Cc1ccc(Br)cc1
5 to 10%

Again, but for O=S(=O)(/C=C/c1cccs1)Cc1ccc(Cl)cc1
5 to 10%

Again, but for O=S(=O)(/C=C/c1cccc2ccccc12)Cc1ccc(Cl)cc1
10 to 15%

Again, but for O=S(=O)(/C=C/c1ccc2ccccc2c1)Cc1ccc(Br)cc1
5 to 10%

Again, but for Cc1ccc(CS(=O)(=O)/C=C/c2ccsc2)cc1
5 to 10%

Again, but for O=S(=O)(/C=C/c1cc(Br)cs1)Cc1ccc(F)cc1
5 to 10%

Again, but for O=[N+]([O-])c1cc(/C=C/S(=O)(=O)Cc2ccc(I)cc2)cs1
5 to 10%

----------
# Tested on: non-small cell lung carcinoma cell line H157
# Assay name: Viability assay, Trypan blue exclusion, non-small cell lung carcinoma cell line H157
# Format: cell-based
# Parameters: dose or concentration left out as unconfirmed
# Experimental setup: 96 hours
Measured quantity: percent cell death (% Death), H157

// solved cases for percent cell death (% Death), H157 follow
{"Smiles code": "O=S1(=O)C=CC(/C=C/S(=O)(=O)Cc2ccc(Cl)cc2)=C1", "Measured quantity": "percent cell death (% Death), H157", "Value observed": "+ ((+)=5-10%)"}
{"Smiles code": "O=S(=O)(/C=C/c1ccsc1)Cc1ccc(OC(F)(F)F)cc1", "Measured quantity": "percent cell death (% Death), H157", "Value observed": "+ ((+)=5-10%)"}
{"Smiles code": "COc1ccc(CS(=O)(=O)/C=C/C2=CS(=O)(=O)C=C2)cc1", "Measured quantity": "percent cell death (% Death), H157", "Value observed": "+ ((+)=5-10%)"}
{"Smiles code": "O=S1(=O)C=CC(/C=C/S(=O)(=O)Cc2ccc(F)cc2)=C1", "Measured quantity": "percent cell death (% Death), H157", "Value observed": "+ ((+)=5-10%)"}

Now for the compound whose percent cell death (% Death), H157 we want.
# lookup: percent cell death (% Death), H157 of O=S1(=O)C=CC(/C=C/S(=O)(=O)Cc2ccc(Br)cc2)=C1
+ ((+)=5-10%)

----------
compounds and their reported cytotoxicity
# Tested on: breast tumor cell line BT-20
# Assay name: Viability assay, Trypan blue exclusion, breast tumor cell line BT-20
# Type: cell-based
# Design: dose or concentration left out as unconfirmed
# Experimental setup: Homo sapiens, BT-20, 96 hours, read-out: percent cell death (% Death), BT20

{"Smiles code": "O=S(=O)(/C=C/c1ccsc1)Cc1ccc(I)cc1", "Measured quantity": "cytotoxicity", "Value observed": "10 to 15%"}
{"Smiles code": "O=S(=O)(/C=C/c1ccsc1)Cc1ccc(Cl)cc1Cl", "Measured quantity": "cytotoxicity", "Value observed": "50 to 60%"}
{"Smiles code": "O=S(=O)(/C=C/c1ccc(Cl)cc1)Cc1cccc2ccccc12", "Measured quantity": "cytotoxicity", "Value observed": "5 to 10%"}
{"Smiles code": "O=S(=O)(/C=C/c1ccsc1)Cc1ccc(F)cc1", "Measured quantity": "cytotoxicity", "Value observed": "5 to 10%"}
{"Smiles code": "O=S(=O)(/C=C/c1ccccn1)Cc1ccc(F)cc1", "Measured quantity": "cytotoxicity", "Value observed": "5 to 10%"}
{"Smiles code": "O=S(=O)(/C=C/c1ccc(Br)s1)Cc1ccc(F)cc1", "Measured quantity": "cytotoxicity", "Value observed": "5 to 10%"}
{"Smiles code": "O=S(=O)(/C=C/c1cccs1)Cc1ccc(F)cc1", "Measured quantity": "cytotoxicity", "Value observed": "5 to 10%"}
{"Smiles code": "O=S(=O)(/C=C/c1cccc2ccccc12)Cc1ccc(F)cc1", "Measured quantity": "cytotoxicity", "Value observed": "5 to 10%"}

# lookup: cytotoxicity of O=S(=O)(/C=C/c1cccs1)Cc1ccc(Br)cc1
5 to 10%

Again, but for O=S(=O)(/C=C/c1ccsc1)Cc1ccc(Cl)cc1
40 to 50%

Again, but for O=S(=O)(/C=C/c1c2ccccc2cc2ccccc12)Cc1ccc(Br)cc1
50 to 60%

Again, but for O=[N+]([O-])c1ccc(CS(=O)(=O)/C=C/c2ccsc2)cc1
5 to 10%

Again, but for O=S(=O)(/C=C/c1ccncc1)Cc1ccc(Cl)cc1
5 to 10%

Again, but for O=[N+]([O-])c1ccc(/C=C/S(=O)(=O)Cc2cccc3ccccc23)cc1
5 to 10%

Again, but for O=S(=O)(/C=C/c1ccc2ccccc2c1)Cc1ccc(F)cc1
5 to 10%

Again, but for O=S(=O)(/C=C/c1cccnc1)Cc1ccc(F)cc1
5 to 10%

Again, but for N#Cc1ccc(CS(=O)(=O)/C=C/c2ccsc2)cc1
5 to 10%

Again, but for O=[N+]([O-])c1cccc(/C=C/S(=O)(=O)Cc2cccc3ccccc23)c1
5 to 10%

Again, but for O=S(=O)(/C=C/c1ccccn1)Cc1ccc(Cl)cc1
5 to 10%

Again, but for O=S(=O)(/C=C/c1cccnc1)Cc1ccc(Cl)cc1
5 to 10%

Again, but for O=[N+]([O-])c1ccccc1/C=C/S(=O)(=O)Cc1cccc2ccccc12
40 to 50%

Again, but for O=[N+]([O-])c1cc(/C=C/S(=O)(=O)Cc2ccc(Cl)cc2)cs1
5 to 10%

Again, but for O=S(=O)(/C=C/c1ccsc1)Cc1ccc(Br)cc1
40 to 50%

Again, but for O=S(=O)(/C=C/c1ccc2ccccc2c1)Cc1ccc(Cl)cc1
5 to 10%

Again, but for O=S(=O)(/C=C/c1ccncc1)Cc1ccc(Br)cc1
5 to 10%

Again, but for O=S(=O)(/C=C/c1ccsc1)Cc1ccc(Cl)c(Cl)c1
5 to 10%
